This listing pairs molecules with measured IC50.
# target entity: Prostaglandin G/H synthase 2 (Ovis aries, UniProt P79208)
# Sequence (P79208 whole entry): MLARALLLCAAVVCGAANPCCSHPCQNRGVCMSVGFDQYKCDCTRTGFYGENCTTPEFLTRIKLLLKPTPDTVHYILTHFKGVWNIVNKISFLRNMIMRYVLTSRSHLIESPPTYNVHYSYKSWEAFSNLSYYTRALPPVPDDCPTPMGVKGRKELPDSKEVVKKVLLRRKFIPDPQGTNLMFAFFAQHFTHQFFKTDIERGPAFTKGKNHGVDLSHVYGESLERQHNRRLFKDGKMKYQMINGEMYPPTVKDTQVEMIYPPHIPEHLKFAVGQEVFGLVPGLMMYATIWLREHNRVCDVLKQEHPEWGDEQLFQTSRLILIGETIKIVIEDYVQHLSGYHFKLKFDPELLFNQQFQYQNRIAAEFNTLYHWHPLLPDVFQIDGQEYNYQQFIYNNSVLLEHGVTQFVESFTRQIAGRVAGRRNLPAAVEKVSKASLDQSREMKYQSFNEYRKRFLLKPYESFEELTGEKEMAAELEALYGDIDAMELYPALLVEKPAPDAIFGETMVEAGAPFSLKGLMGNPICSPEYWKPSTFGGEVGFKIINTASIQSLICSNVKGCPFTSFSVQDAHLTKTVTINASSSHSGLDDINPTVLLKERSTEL

| molecule | uom | IC50 |
| --- | --- | --- |
| COc1ccc(C2CC(c3ccc(Cl)cc3)=NN2c2ccc(S(C)(=O)=O)cc2)cc1 (configuration not stated) | nM | 3410 |
| COc1ccc(C2CC(c3ccc(Cl)cc3)=NN2c2ccc(S(N)(=O)=O)cc2)cc1 (configuration not stated) | nM | 740 |
| CS(=O)(=O)c1ccc(N2N=C(c3ccc(Cl)cc3)CC2c2ccc(Cl)cc2)cc1 (configuration not stated) | nM | 1520 |
| COc1ccc(C2CC(c3ccc(Br)cc3)=NN2c2ccc(S(N)(=O)=O)cc2)cc1 (configuration not stated) | nM | 630 |
| COc1cc(C2CC(c3ccc(Br)cc3)=NN2c2ccc(S(N)(=O)=O)cc2)cc(OC)c1OC (configuration not stated) | nM | 780 |
| COc1ccc(C2CC(c3ccc(Br)cc3)=NN2c2ccc(S(C)(=O)=O)cc2)cc1 (configuration not stated) | nM | 630 |
| NS(=O)(=O)c1ccc(N2N=C(c3ccc(Cl)cc3)CC2c2ccc(Cl)cc2)cc1 (configuration not stated) | nM | 900 |
